# target_desc: MYC:MAX heterodimer (MYCbHLHZip over immobilized MAXbHLHZip) (Homo sapiens, UniProt P01106)
# Construct: MYC:MAX heterodimer formation assay based on recombinant proteins
# method_notes: Assay 1B MYC:MAX SPR heterodimer formation assay
# measurement_parameters: 100 nM MYCbHLHZip pre-mixed with compound, 25° C.
pIC50: −log10 of the molar value.

# compound, pIC50
rows = [
    ("CCOc1ccc2nc3cc(/N=N/c4ccc(N)nc4N)ccc3c(N)c2c1 [Example 1, sulphate hydrate]", 5.42),
]

* * *

Catalogue of compounds with associated Binding relative to Rmax
# target_desc: MYCbHLHZip (Homo sapiens)
# Construct: An amino coupling procedure was used to immobilize MYCbHLHZip protein on a CM5 sensor chip
# method_notes: Assay 2B MYC SPR assay
# Assay type: binding
# measurement_parameters: equilibrium binding experiments

# compound, Binding relative to Rmax (Response Units)
measured = [
    ("CCOc1ccc2nc3cc(/N=N/c4ccc(N)nc4N)ccc3c(N)c2c1 [Example 1, sulphate hydrate]", 1.6),
    ("CCOc1ccc2nc3cc(/N=N/c4c(C)cc(O)cc4C)ccc3c(N)c2c1 [Example 3, hydrate]", 1.5),
    ("CCOc1ccc2nc3cc(/N=N/c4cc(C)c(O)cc4C)ccc3c(N)c2c1", 1.2),
    ("CCOc1ccc2nc3cc(/N=N/c4cc(C)c(O)c(C)c4)ccc3c(N)c2c1", 0.8),
]

* * *

# Tested on: MYCN-amplified neuroblastoma cells (SK-N-DZ, Kelly, IMR-32)
# method_notes: Assay 5A neuroblastoma cell growth (WST-1), MYCN-amplified
# Type: cell-based
# measurement_parameters: Homo sapiens, second run
Where a name gives a salt, the structure may show the parent alone.
observed_property: GI50 (µM)

# compound, target_desc, unit_descriptor, result_value
measured = [
    ("CCOc1ccc2nc3cc(/N=N/c4ccc(O)c(CN(C)CCN(C)C)c4)ccc3c(N)c2c1", "MYCN-amplified neuroblastoma cells (SK-N-DZ, Kelly, IMR-32)", "µM", 6),
    ("CCOc1ccc2nc3cc(/N=N/c4cc(C)c(O)c(C)c4)ccc3c(N)c2c1", "MYCN-amplified neuroblastoma cells (SK-N-DZ, Kelly, IMR-32)", "µM", 1),
    ("CCOc1ccc2nc3cc(/N=N/c4ccc(N)nc4N)ccc3c(N)c2c1 [Example 1, sulphate hydrate]", "MYCN-amplified neuroblastoma cells (SK-N-DZ, Kelly, IMR-32)", "µM", 2.5),
    ("CCOc1ccc2nc3cc(/N=N/c4c(C)cc(O)cc4C)ccc3c(N)c2c1 [Example 3, hydrate]", "MYCN-amplified neuroblastoma cells (SK-N-DZ, Kelly, IMR-32)", "µM", 2),
    ("CCOc1ccc2nc3cc(/N=N/c4ccc(O)c(CNCCN(C)C)c4)ccc3c(N)c2c1 [Example 8, hydrochloride]", "MYCN-amplified neuroblastoma cells (SK-N-DZ, Kelly, IMR-32)", "µM", 4),
    ("CCOc1ccc2nc3cc(/N=N/c4cc(C)c(O)cc4C)ccc3c(N)c2c1", "MYCN-amplified neuroblastoma cells (SK-N-DZ, Kelly, IMR-32)", "µM", 2.5),
    ("CCOc1ccc2nc3cc(/N=N/c4ccc(O)c(CN(C)C)c4)ccc3c(N)c2c1", "MYCN-amplified neuroblastoma cells (SK-N-DZ, Kelly, IMR-32)", "µM", 25),
    ("CCOc1ccc2nc3cc(/N=N/c4ccc(O)c(CO)c4)ccc3c(N)c2c1", "MYCN-amplified neuroblastoma cells (SK-N-DZ, Kelly, IMR-32)", "µM", 15),
]

* * *

# target_desc: MYC:MAX (MYC-GLuc-C + MAX-GLuc-N) in HEK293 cells (Homo sapiens)
# Sequence (P01106 whole entry): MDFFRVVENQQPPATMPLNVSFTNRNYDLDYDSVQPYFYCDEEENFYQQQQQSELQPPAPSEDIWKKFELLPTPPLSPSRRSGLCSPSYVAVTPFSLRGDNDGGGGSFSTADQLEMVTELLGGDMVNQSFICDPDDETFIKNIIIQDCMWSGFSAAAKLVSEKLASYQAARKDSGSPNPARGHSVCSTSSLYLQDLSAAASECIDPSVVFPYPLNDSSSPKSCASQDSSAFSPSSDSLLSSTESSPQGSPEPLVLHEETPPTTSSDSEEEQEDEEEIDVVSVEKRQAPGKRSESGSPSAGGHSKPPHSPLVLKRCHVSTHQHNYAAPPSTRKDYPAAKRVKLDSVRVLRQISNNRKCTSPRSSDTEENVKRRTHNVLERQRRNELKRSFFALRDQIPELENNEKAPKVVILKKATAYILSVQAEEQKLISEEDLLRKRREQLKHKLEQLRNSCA
# method_notes: Assay 3C GLuc complementation assay
# measurement_parameters: exogenous MYC:MAX
pIC50: −log10 of the molar value.

# compound, pIC50
rows = [
    ("CCOc1ccc2nc3cc(/N=N/c4ccc(N)nc4N)ccc3c(N)c2c1 [Example 1, sulphate hydrate]", 5.00),
]
